Entries and their Acid pKa values follow.
test: Acid strength (pKa) of the ester-forming acid of model compounds; format: physicochemical; settings: pKa of the acid forming the ester bond

- compound: "CCOC(=O)COC(C)=O [CH3COOCH2COOEt]"
  Acid pKa: 2.7
- compound: "CCOC(C)=O [CH3COOEt]"
  Acid pKa: 4.7
- compound: "CCOC(=O)C(=O)NC [CH3NHCOCOEt]"
  Acid pKa: 1.8
- compound: "CCOC(=O)COC [CH3OCH2COOEt]"
  Acid pKa: 3.6
